conditions: Ebola virus entry assay, blue channel fluorescence
Active and inactive are the calls of the source. The rule behind the calls is not given here.
Give your call using only these classes: active, inactive

Solved cases below.
>>> df
                                   molecule  assigned_class
0  COc1cc2c(cc1OC)[C@@H]1CC(=O)[C@@H](CC(C)C)CN1CC2        inactive
1  CC/C(=C(\c1ccccc1)c1ccc(OCCN(C)C)cc1)c1ccccc1          active
2        CN1CC(=O)N/C1=N/C(=O)Nc1cccc(Cl)c1        inactive

Hello, I am checking results. What call was entered for CN(C)CCOC(C)(c1ccccc1)c1ccccn1 (stereo unspecified) ?
active

Hello, I am checking results. What call was entered for COc1cc2c(c(OC)c1OC)-c1ccc(OC)c(=O)cc1[C@@H](NC(C)=O)CC2 ?
active

Hello, I am checking results. What call was entered for OC(Cn1cncn1)(Cn1cncn1)c1ccc(F)cc1F ?
inactive

Hello, I am checking results. What call was entered for NC(=O)N1c2ccccc2CC(=O)c2ccccc21 ?
inactive

Hello, I am checking results. What call was entered for O=C(c1ccccc1)c1ccc2n1CCC2C(=O)O (stereo unspecified) ?
inactive

Hello, I am checking results. What call was entered for FC(F)(F)c1cccc(C2=CCN(CCc3ccc4ccccc4c3)CC2)c1 ?
inactive

Hello, I am checking results. What call was entered for CC1=C(/C=C/C(C)=C/C=C/C(C)=C/C(=O)Nc2ccc(O)cc2)C(C)(C)CCC1 ?
active

Hello, I am checking results. What call was entered for O=C1c2c(O)ccc(O)c2C(=O)c2c(NCCNCCO)ccc(NCCNCCO)c21 ?
active
